- EXPERIMENT NOTES: qHTS assay to identify small molecule antagonists of the retinoid-related orphan receptor gamma (ROR-gamma) signaling pathway - cell viability counter screen (AID 1159520); further: on the % scale 0 is the no-effect control and ±100 the full control effect; nearly all actives have a fitted effect of over 50% in size
- TEST SETTINGS: Tet-on RORgamma CHO cells viability, ATP luminescence, 16 h; series mostly up to 92.4 µM
Records with an inconclusive call do not appear. Activity calls are given as the source filed them. The call rests on the fitted dose curve; in most records, active means well fitted cell-killing curve with a large enough effect in the repeat runs; inconclusive means weak or mixed curves, or effect the other way; inactive means no such curve, though single readings can be large or run the other way.
EXPERIMENTAL READOUT: outcome

>>> reported_result("O=C1[C@H]2CCCC[C@H]2C(=O)N1CCCCN1CCN(c2nsc3ccccc23)CC1")
"inactive"
>>> reported_result("Nc1cccc(S(=O)(=O)c2cccc(N)c2)c1")
"inactive"
>>> reported_result("Cc1oc(-c2ccccc2)nc1CCOc1cccc2c1ccn2CCC(=O)O")
"inactive"

* * *

- EXPERIMENT NOTES: qHTS RealTime-Glo MT Cell Viability Assay in HEK293 cells - 40 hour (AID 1224874); further: on the % scale 0 is the no-effect control and ±100 the full control effect; nearly all actives have a fitted effect of over 50% in size
- TEST SETTINGS: RealTime-Glo luminescence; active compounds read low
- Excerpt: U.S. Tox21 Program National Center for Advancing Translational Sciences [NCATS] NIH Chemical Genomics Center [NCGC] U.S. Environmental Protection Agency [EPA] National Institutes of Environmental Health Sciences [NIEHS] National Toxicology Program [NTP] U.S. Food and Drug Administration [FDA] Tox21 Assay Overview: Measure of cell viability is critical in the cell-base assay. Analysis of cell viability is necessary for the characterization of cell responses to cytotoxic drugs and environmental stress. […]
Inconclusive results are not listed.
EXPERIMENTAL READOUT: max response (%)
Enter your answer as a number in %; do not include the unit.

Illustrative cases are given below, each with its answer.
>>> reported_result("CCCCC(=O)OCC(=O)[C@H]1[C@H](C)C[C@H]2[C@@H]3C[C@H](F)C4=CC(=O)C=C[C@]4(C)[C@@]3(F)[C@@H](O)C[C@@]21C")
-15.1
>>> reported_result("Nc1ccccc1S(=O)(=O)c1ccccc1")
-22.9
>>> reported_result("CN(C)CCN(Cc1ccsc1)c1ccccn1")
1.6

**Q:** Name the reported max response value associated with the compound OC[C@H]1O[C@@H](OCCc2ccc(O)cc2)[C@H](O)[C@@H](O)[C@@H]1O
**A:** 7.46

**Q:** Now this one: O=[N+]([O-])c1ccc2[nH]ncc2c1
**A:** -13.3

**Q:** Now this one: CN(C)CCCN1c2ccccc2Sc2ccccc21
**A:** -25.3

**Q:** Now this one: N=c1ccn2c(n1)O[C@H]1[C@H](O)[C@@H](CO)O[C@H]12
**A:** 22.1

**Q:** Now this one: CN1Cc2cc(C(=O)N3CCC(C4CCNCC4)CC3)ccc2NC(CC(=O)O)C1=O (stereo unspecified)
**A:** 5.98

**Q:** Now this one: CCO[C@H](Cc1ccc(OCCc2ccc(OS(C)(=O)=O)cc2)cc1)C(=O)O
**A:** 10.3

* * *

- EXPERIMENT NOTES: qHTS assay to identify small molecule antagonists of the thyroid receptor (TR) signaling pathway (AID 743065); further: nearly all actives have a fitted effect of over 55% in size
- TEST SETTINGS: GH3.TRE-Luc, T3-stimulated luciferase inhibition, 23.5 h; series mostly up to 70.3 µM
Records with an inconclusive call do not appear. The source made the active and inactive calls. The call rests on the fitted dose curve; in most records, active means well fitted inhibition curve with a large enough effect in the repeat runs; inconclusive means weak or mixed curves; inactive means no such curve, though single readings can be large or run the other way.
Reply using exactly one outcome from active, inactive

>>> classification("CN(C)C(=O)NC1(c2ccccc2)CCN(CC[C@@]2(c3ccc(F)c(F)c3)CN(C(=O)c3ccccc3)CCO2)CC1")
"active"
>>> classification("O=C1C(O)=C(O)C(=O)C(O)=C1O")
"inactive"
>>> classification("Cc1ccccc1S(=O)(=O)O")
"inactive"
>>> classification("CCCCC(CC)CN1C(=O)C2C3C=CC(C3)C2C1=O (stereo not drawn)")
"active"
>>> classification("C=C1C(=C/C=C2\\CCC[C@]3(C)[C@@H]([C@H](C)/C=C/[C@@H](O)C4CC4)CC[C@@H]23)C[C@@H](O)C[C@@H]1O")
"active"

**Q:** Please share the test call associated with NCCCN1CCOCC1 .
**A:** inactive

**Q:** Now this one: CC(C)Nc1ccc(NC(C)C)c2c1C(=O)c1ccccc1C2=O
**A:** inactive

**Q:** Now this one: O=P(O)(OCc1ccccc1)OCc1ccccc1
**A:** inactive

* * *

- EXPERIMENT NOTES: qHTS assay for small molecule disruptors of the mitochondrial membrane potential (AID 720635)
- TEST SETTINGS: HepG2 mitochondrial membrane potential, Mito-MPS dye ratio; series mostly up to 83.2 µM
Inconclusive results are not listed. The source made the active and inactive calls. Calls come from the whole dose curve; as a rule, active = well fitted inhibition curve with a large enough effect in the signal ratio in the repeat runs; inconclusive = weak or mixed curves, or effect the other way; inactive = flat fitted curve, though single readings scatter; the % refers to the signal ratio.
Reply using exactly one outcome from TRUE = active, FALSE = inactive

>>> classification("NCC(=O)O")
"FALSE"
>>> classification("O=C(NCCO[N+](=O)[O-])c1cccnc1")
"FALSE"
>>> classification("O=CC1CC=CCC1 (configuration not stated)")
"FALSE"
>>> classification("OC[C@H]1O[C@@H](OCCc2ccc(O)cc2)[C@H](O)[C@@H](O)[C@@H]1O")
"FALSE"

**Q:** Please share the test call associated with CCCCOC(=O)CCCCCCCC(=O)OCCCC .
**A:** FALSE

**Q:** Now this one: CCCCNc1ccc(C(=O)OCCOCCOCCOCCOCCOCCOCCOCCOCCOC)cc1
**A:** TRUE

**Q:** Now this one: Cc1cc(N)c2cc(NC(=O)Nc3ccc4nc(C)cc(N)c4c3)ccc2n1
**A:** TRUE

**Q:** Now this one: COCC(C)OC(C)=O (configuration not stated)
**A:** FALSE

**Q:** Now this one: CCOc1ccc(N)c([N+](=O)[O-])c1
**A:** FALSE

**Q:** Now this one: CC(C)(C)Cl
**A:** FALSE

**Q:** Now this one: CCCCCCCCCCCC(=O)OC[C@@H](O)[C@H]1OC[C@H](OCCO)[C@H]1OCCO
**A:** FALSE

**Q:** Now this one: CC1OC(=O)C(C)OC1=O (configuration not stated)
**A:** FALSE

* * *

- EXPERIMENT NOTES: qHTS assay to identify small molecule antagonists of the androgen receptor (AR) signaling pathway - cell viability counter screen (AID 743033; further: nearly all actives have a fitted effect of over 45% in size)
- TEST SETTINGS: AR-bla HEK293 viability, CellTiter-Glo luminescence, 16 h; series mostly up to 58.5 µM
Inconclusive results are not listed. Activity calls are given as the source filed them. Calls come from the whole dose curve; as a rule, active = well fitted cell-killing curve with a large enough effect in the repeat runs; inconclusive = weak or mixed curves; inactive = no such curve, though single readings can be large or run the other way.
Reply using exactly one outcome from active, inactive

These recorded examples may help you get a feel for the data.
>>> classification("Cn1c(=O)cc(Oc2ccc(F)cc2F)c2cnc(NCC(C)(C)O)nc21")
"inactive"
>>> classification("CCCCC(=O)OCC(=O)[C@H]1[C@H](C)C[C@H]2[C@@H]3C[C@H](F)C4=CC(=O)C=C[C@]4(C)[C@@]3(F)[C@@H](O)C[C@@]21C")
"inactive"
>>> classification("O=CC1CC=CCC1 (configuration not stated)")
"inactive"
>>> classification("CCCCCCCCCOS(=O)(=O)O")
"inactive"

**Q:** Please share the test call associated with COC(=O)C1=C(C)NC(COC(N)=O)=C(C(=O)OC(C)C)C1c1cccc(Cl)c1Cl (configuration not stated) .
**A:** inactive

**Q:** Now this one: CCCCOC(=O)CCCCCCCC(=O)OCCCC
**A:** inactive

**Q:** Now this one: CN1CCC(=C2c3ccccc3Sc3ccccc32)CC1
**A:** active

**Q:** Now this one: OC(CN1CCC(Cc2ccc(F)cc2)CC1)c1ccc(Cl)cc1 (configuration not stated)
**A:** inactive

**Q:** Now this one: O=C(O)c1ccc(S(=O)(=O)O)cc1C(=O)O
**A:** inactive

**Q:** Now this one: CC1CCC(=O)C1=O (configuration not stated)
**A:** inactive

**Q:** Now this one: CC1=CC=C(C(C)C)CC1
**A:** inactive

**Q:** Now this one: CCOc1ccc(N=Nc2ccc(/C=C/c3ccc(N=Nc4ccc(OCC)cc4)cc3S(=O)(=O)O)c(S(=O)(=O)O)c2)cc1
**A:** inactive

**Q:** Now this one: c1ccc(CNCCNCc2ccccc2)cc1
**A:** inactive

**Q:** Now this one: CC(C)C[C@H]1C(=O)N2CCC[C@H]2[C@]2(O)O[C@](NC(=O)[C@@H]3C=C4c5cccc6[nH]c(Br)c(c56)C[C@H]4N(C)C3)(C(C)C)C(=O)N12
**A:** inactive

**Q:** Now this one: CNC(=O)CN(CCN(CCN(CC(=O)[O-])CC(=O)NC)CC(=O)[O-])CC(=O)[O-].O.[Gd+3]
**A:** inactive

**Q:** Now this one: Nc1ccc(N)c2c1C(=O)c1ccccc1C2=O
**A:** inactive

**Q:** Now this one: O=C(c1ccc(F)cc1)C1CCN(CCn2c(=S)[nH]c3ccccc3c2=O)CC1
**A:** inactive

**Q:** Now this one: CC/C=C\CCOC(=O)CC
**A:** inactive

**Q:** Now this one: CC(=O)c1ccc2c(c1)N(CCCN(C)C)c1ccccc1S2
**A:** inactive

All figures here come from PubChem BioAssay (Tox21).
